The reported measurements were obtained from patent US10344026B2.

// IC50 lookup, one value per entry
Tested on: Ishikawa (K-Ras wild type cell line)
Assay Summary: Viability assay (CellTiterBlue, 72 hr) Ishikawa
Type: cell-based
Applied Conditions: Homo sapiens, GI50, CellTiterBlue, Ishikawa K-Ras wild-type

Molecule	IC50
CCc1nc(C)c(C(=O)Nc2nc(-c3ccc4c(c3)CCC(=O)N4C(C)c3cccnc3)cs2)o1 (centres unmarked)	> 25 µM
Cc1nc(C2CCOC2)oc1C(=O)Nc1nc(-c2ccc3c(c2)CCC(=O)N3)cs1 (centres unmarked)	2 µM
Cc1nc(C(C)C)oc1C(=O)Nc1nc(-c2ccc3c(c2)CCC(=O)N3Cc2cccnc2)cs1	> 25 µM
Cc1nc(C2CCN(C)CC2)sc1C(=O)Nc1nc(-c2ccc3c(c2)CCC(=O)N3)cs1	> 25 µM

Next molecule, please.
Quick check: IC50 of CCn1cc(C(=O)Nc2nc(-c3ccc4c(c3)CCC(=O)N4)cs2)c(C)n1 ?
1.1 µM
